- testedSystem: Melanocortin receptor 3 (Homo sapiens, UniProt P41968); further: in other assays of this panel Not Active means under 50% inhibition at 10 µM
- Sequence (P41968 whole entry): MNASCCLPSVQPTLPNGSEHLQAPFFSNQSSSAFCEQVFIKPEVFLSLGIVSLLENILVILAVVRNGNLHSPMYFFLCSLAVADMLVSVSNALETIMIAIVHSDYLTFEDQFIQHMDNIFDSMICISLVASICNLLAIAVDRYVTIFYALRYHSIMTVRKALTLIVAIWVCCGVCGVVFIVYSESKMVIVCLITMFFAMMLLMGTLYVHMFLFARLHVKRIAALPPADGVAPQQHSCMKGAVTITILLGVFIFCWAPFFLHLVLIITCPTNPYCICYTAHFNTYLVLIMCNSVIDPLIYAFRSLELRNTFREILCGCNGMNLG
- Assay type: cell membranes, HEK293, Membrane
- particulars: hek293
quantityKind: IC50

Sample answers from the record:
COc1cc(/C=C/C(=O)O)ccc1O [FERULATE]
Not Active
C=CCO
Not Active
COc1ccccc1OCCNCC(O)COc1cccc2[nH]c3ccccc3c12 (stereo not given)
Not Active
CC(O)C(=O)O (stereo not given)
Not Active
Cl.NC[C@H]1CC[C@H](C(=O)Oc2ccc(CCC(=O)O)cc2)CC1 [CETRAXATE HYDROCHLORIDE]
Not Active
c1ccc2c(c1)Nc1ccccc1S2
Not Active

Record CCC(C)(C)C(=O)O[C@H]1C[C@@H](C)C=C2C=C[C@H](C)[C@H](CC[C@@H]3C[C@@H](O)CC(=O)O3)[C@H]21 , field IC50: Not Active

Record CC(C)(c1ccc(O)cc1)c1ccc(O)cc1 , field IC50: Not Active

Record CC(C)Cc1ccc([C@H](C)C(=O)O)cc1 , field IC50: Not Active

Record CCN1CCCC1CNC(=O)c1cc(S(N)(=O)=O)ccc1OC (stereo not given) [SULPIRIDE] , field IC50: Not Active

Record CCN(CC)C(=S)SSC(=S)N(CC)CC , field IC50: Not Active

Record Oc1ccc(/C=C/c2cc(O)cc(O)c2)cc1 , field IC50: Not Active

Record Cc1ccnc2c1NC(=O)c1cccnc1N2C1CC1 , field IC50: Not Active

Record COC(=O)C[C@](O)(CCC(C)(C)O)C(=O)O[C@@H]1C(OC)=C[C@]23CCCN2CCc2cc4c(cc2[C@H]13)OCO4 , field IC50: Not Active

Record CCN1CCN(c2cc3c(cc2F)c(=O)c(C(=O)O)cn3C2CC2)CC1 , field IC50: Not Active

Record C[N+](C)(C)CCOC(N)=O.[Cl-] , field IC50: Not Active

Record CC(CN1c2ccccc2Sc2ccccc21)N(C)C (stereo not given) , field IC50: Not Active

Record Nc1nc(N)c2nc(CNc3ccc(C(=O)N[C@@H](CCC(=O)O)C(=O)O)cc3)cnc2n1 , field IC50: Not Active

Record Cc1cc(C(C)(C)C)c(O)c(C)c1CC1=NCCN1 , field IC50: Not Active

Record O=C1CC[C@@]2(O)[C@H]3Cc4ccc(O)c5c4[C@@]2(CCN3CC2CC2)[C@H]1O5 [NALTREXONE] , field IC50: Not Active

----------
- testedSystem: Prostaglandin G/H synthase 1 (Homo sapiens, UniProt P23219); further: in other assays of this panel Not Active means under 50% inhibition at 10 µM;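 further: inhibition of COX-1 enzyme activity, with arachidonic acid supplied as substrate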
- Sequence (P23219 whole entry): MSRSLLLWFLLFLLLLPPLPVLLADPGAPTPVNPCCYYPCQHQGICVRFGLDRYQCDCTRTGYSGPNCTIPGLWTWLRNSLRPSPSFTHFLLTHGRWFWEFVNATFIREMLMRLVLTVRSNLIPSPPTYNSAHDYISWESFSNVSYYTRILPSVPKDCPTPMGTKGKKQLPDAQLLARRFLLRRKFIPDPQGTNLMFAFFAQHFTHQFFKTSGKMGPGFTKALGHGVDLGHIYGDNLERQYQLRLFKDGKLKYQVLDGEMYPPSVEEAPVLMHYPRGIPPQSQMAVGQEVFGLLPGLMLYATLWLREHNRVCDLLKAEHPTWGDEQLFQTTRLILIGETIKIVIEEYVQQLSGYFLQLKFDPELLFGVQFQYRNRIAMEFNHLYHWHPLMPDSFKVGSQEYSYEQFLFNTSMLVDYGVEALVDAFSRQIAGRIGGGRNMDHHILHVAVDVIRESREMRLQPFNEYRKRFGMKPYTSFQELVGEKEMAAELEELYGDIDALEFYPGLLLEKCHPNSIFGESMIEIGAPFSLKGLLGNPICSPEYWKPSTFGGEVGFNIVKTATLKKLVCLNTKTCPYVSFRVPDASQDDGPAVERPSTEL
- assaySummary: biochemical
- Assay type: tissue-based, Platelet
- particulars: platelet
quantityKind: IC50

O=C(OC[C@H]1O[C@@H](OC(=O)c2cc(O)c(O)c(OC(=O)c3cc(O)c(O)c(O)c3)c2)[C@H](OC(=O)c2cc(O)c(O)c(OC(=O)c3cc(O)c(O)c(O)c3)c2)[C@@H](OC(=O)c2cc(O)c(O)c(OC(=O)c3cc(O)c(O)c(O)c3)c2)[C@@H]1OC(=O)c1cc(O)c(O)c(OC(=O)c2cc(O)c(O)c(O)c2)c1)c1cc(O)c(O)c(OC(=O)c2cc(O)c(O)c(O)c2)c1
Not Active
CCN1CCN(c2cc3c(cc2F)c(=O)c(C(=O)O)cn3C2CC2)CC1
Not Active
O=C1CC[C@@]2(O)[C@H]3Cc4ccc(O)c5c4[C@@]2(CCN3CC2CC2)[C@H]1O5 [NALTREXONE]
Not Active
